- Method notes: Inhibition of P-glycoprotein-mediated rhodamine 123 absorption in guinea-pig ileum
- Type: tissue-based
- Conditions: Cavia porcellus
Assay endpoint: EC50 (µM)

a. CC/C(=C(\c1ccccc1)c1ccc(OCCN(C)C)cc1)c1ccccc1 [TAMOXIFEN]
b. COc1cccc(CCc2ccccc2OCc2ccccn2)c1
Which has the smaller recorded EC50, a or b ? Write down the label attached to your selection. b
